- method: Oral bioavailability: plasma concentration after oral gavage
- Type: in vivo, Sprague Dawley rats
- measurement-context: rats, 1 hr, normalized to a 6 mg/kg dose
- Protocol: Female Sprague Dawley® rats (150-200 g) were obtained from Harlan Labs. […] The animals were fasted overnight (day −1), but water was provided ad libitum. On the morning of dosing (day 0), each rat was weighed and the cannulas flushed with heparin (1000 U/mL). With the aid of a feeding tube, the animals were then dosed orally (gavage) with aqueous formulations containing either the PEGylated or the free drug. The dose was determined on a mg/kg body weight basis. […]
readout-type: Mean Plasma Concentration ± SD, 1 hr (ng/mL)
Quick note: give the figure in ng/mL, leave out the unit.

Look over these answered cases.
{"molecule": "COCCOCCOCCOCCOCCNC(=O)\\C=C(C)/C=C/C=C(C)/C=C/C1=C(C)CCCC1(C)C [PEG5-13-cis-RA, CH3—(OCH2CH2)5—NH-13-cis-retinamide]", "readout-type": "Mean Plasma Concentration ± SD, 1 hr", "reported-result": 77.7}
{"molecule": "COCCOCCOCCOCCOCCOCCOCCOCCOCCOCCOCCNC(=O)\\C=C(C)/C=C/C=C(C)/C=C/C1=C(C)CCCC1(C)C [PEG11-13-cis-RA, CH3—(OCH2CH2)11—NH-13-cis-Retinamide]", "readout-type": "Mean Plasma Concentration ± SD, 1 hr", "reported-result": 21.8}
{"molecule": "CC1=C(/C=C/C(C)=C/C=C/C(C)=C\\C(=O)O)C(C)(C)CCC1 [13-cis-Retinoic Acid, 13-cis-retinoic acid, reference compound]", "readout-type": "Mean Plasma Concentration ± SD, 1 hr", "reported-result": 43.3}
{"molecule": "COCCOCCOCCOCCOCCOCCOCCNC(=O)\\C=C(C)/C=C/C=C(C)/C=C/C1=C(C)CCCC1(C)C [PEG7-13-cis-RA, CH3—(OCH2CH2)7—NH-13-cis-Retinamide]", "readout-type": "Mean Plasma Concentration ± SD, 1 hr", "reported-result": 44.0}

With those in mind, consider the next molecule.
Q: // fetch Mean Plasma Concentration ± SD, 1 hr given entry COCCOCCOCCNC(=O)\C=C(C)/C=C/C=C(C)/C=C/C1=C(C)CCCC1(C)C [PEG3-13-cis-RA, CH3(OCH2CH2)3—NH-13-cis-Retinamide]
Result: 131.8

----------
- method: Oral bioavailability: plasma concentration after oral gavage
- Type: in vivo, Sprague Dawley rats
- measurement-context: rats, 2 hr, normalized to a 6 mg/kg dose
Known Mean Plasma Concentration ± SD, 2 hr of a selection of compounds
Give the value; after it, write the unit.

Look over these answered cases.
{"compound": "COCCOCCOCCNC(=O)\\C=C(C)/C=C/C=C(C)/C=C/C1=C(C)CCCC1(C)C [PEG3-13-cis-RA, CH3(OCH2CH2)3—NH-13-cis-Retinamide]", "Mean Plasma Concentration ± SD, 2 hr": "158.0 ± 133.0 ng/mL"}
{"compound": "COCCOCCOCCOCCOCCNC(=O)\\C=C(C)/C=C/C=C(C)/C=C/C1=C(C)CCCC1(C)C [PEG5-13-cis-RA, CH3—(OCH2CH2)5—NH-13-cis-retinamide]", "Mean Plasma Concentration ± SD, 2 hr": "61.6 ± 57.1 ng/mL"}
{"compound": "COCCOCCOCCOCCOCCOCCOCCOCCOCCOCCOCCNC(=O)\\C=C(C)/C=C/C=C(C)/C=C/C1=C(C)CCCC1(C)C [PEG11-13-cis-RA, CH3—(OCH2CH2)11—NH-13-cis-Retinamide]", "Mean Plasma Concentration ± SD, 2 hr": "58.2 ± 43.5 ng/mL"}
{"compound": "CC1=C(/C=C/C(C)=C/C=C/C(C)=C\\C(=O)O)C(C)(C)CCC1 [13-cis-Retinoic Acid, 13-cis-retinoic acid, reference compound]", "Mean Plasma Concentration ± SD, 2 hr": "23.3 ± 14.8 ng/mL"}

Q: // fetch Mean Plasma Concentration ± SD, 2 hr given entry COCCOCCOCCOCCOCCOCCOCCNC(=O)\C=C(C)/C=C/C=C(C)/C=C/C1=C(C)CCCC1(C)C [PEG7-13-cis-RA, CH3—(OCH2CH2)7—NH-13-cis-Retinamide]
Result: 38.7 ± 4.2 ng/mL

----------
- assayed-target: μ-Opiate Receptors (Homo sapiens, UniProt P35372)
- Sequence (P35372 whole entry): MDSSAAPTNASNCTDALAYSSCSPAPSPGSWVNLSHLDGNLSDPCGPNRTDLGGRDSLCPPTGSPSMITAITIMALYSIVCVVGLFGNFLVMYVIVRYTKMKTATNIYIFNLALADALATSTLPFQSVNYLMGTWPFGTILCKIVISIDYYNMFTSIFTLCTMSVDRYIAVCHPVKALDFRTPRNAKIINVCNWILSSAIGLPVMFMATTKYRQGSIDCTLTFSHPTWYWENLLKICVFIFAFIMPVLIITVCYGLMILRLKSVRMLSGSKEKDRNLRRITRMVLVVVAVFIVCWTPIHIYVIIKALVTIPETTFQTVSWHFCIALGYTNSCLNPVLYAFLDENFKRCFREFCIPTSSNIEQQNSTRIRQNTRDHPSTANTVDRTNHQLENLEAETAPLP
- method: biochemical
- Type: biochemical
readout-type: EC50 (µM)
Quick note: give the figure in µM, leave out the unit.

Q: Lab note: record EC50 of C=CCN1CC[C@]23c4c5ccc(O)c4O[C@H]2[C@H](OCCOCCOCCOCCOCCOC)CC[C@@]3(O)[C@H]1C5 tested on μ-Opiate Receptors (Homo sapiens, UniProt P35372).
Result: 0.0315

----------
Known Normalized Brain Uptake Rate (Mean ± SD) of a selection of compounds
- method: In situ brain perfusion, blood-brain barrier uptake
- measurement-context: normalized to 5 μM dosing solution, 20 mL/min perfusion rate, 30 sec
Quick note: give the figure in pmole/gm brain/sec, leave out the unit.

Look over these answered cases.
{"compound": "COCCOCCOCCNC(=O)\\C=C(C)/C=C/C=C(C)/C=C/C1=C(C)CCCC1(C)C [PEG3-13-cis-RA, CH3(OCH2CH2)3—NH-13-cis-Retinamide]", "Normalized Brain Uptake Rate (Mean ± SD), pmole/gm brain/sec": 79.65}
{"compound": "CC1=C(/C=C/C(C)=C/C=C/C(C)=C\\C(=O)O)C(C)(C)CCC1 [13-cis-Retinoic Acid, 13-cis-retinoic acid, reference compound]", "Normalized Brain Uptake Rate (Mean ± SD), pmole/gm brain/sec": 102.54}
{"compound": "C=CCN1CC[C@]23c4c5ccc(O)c4O[C@H]2[C@H](OCCOCCOCCOCCOCCOCCOCCOC)CC[C@@]3(O)[C@H]1C5", "Normalized Brain Uptake Rate (Mean ± SD), pmole/gm brain/sec": 0.70}
{"compound": "COCCOCCOCCOCCOCCOCCOCCNC(=O)\\C=C(C)/C=C/C=C(C)/C=C/C1=C(C)CCCC1(C)C [PEG7-13-cis-RA, CH3—(OCH2CH2)7—NH-13-cis-Retinamide]", "Normalized Brain Uptake Rate (Mean ± SD), pmole/gm brain/sec": 24.15}
{"compound": "C=CCN1CC[C@]23c4c5ccc(O)c4O[C@H]2C(=O)CC[C@@]3(O)[C@H]1C5 [Naloxone, naloxone, reference compound]", "Normalized Brain Uptake Rate (Mean ± SD), pmole/gm brain/sec": 15.64}

Q: // fetch Normalized Brain Uptake Rate (Mean ± SD) given entry C=CCN1CC[C@]23c4c5ccc(O)c4O[C@H]2C(OCCOCCOCCOC)CC[C@@]3(O)[C@H]1C5 (stereo partly drawn)
Result: 4.67

----------
- method: In situ brain perfusion, blood-brain barrier uptake
- measurement-context: vs parent drug
readout-type: Reduction in brain uptake rate (BUR) compared to the parent compound (factor / times)
API note: the answer field is a bare number with no unit suffix.

{"molecule": "C=CCN1CC[C@]23c4c5ccc(O)c4O[C@H]2[C@H](OCCOCCOCCOCCOCCOCCOCCOC)CC[C@@]3(O)[C@H]1C5 [PEG7-Nal, α,β-6-CH3—(OCH2CH2)7—O-naloxol]", "reported-result": 16}

With those in mind, consider the next molecule.
Q: // fetch Reduction in brain uptake rate (BUR) compared to the parent compound (factor / times) given entry C=CCN1CC[C@]23c4c5ccc(O)c4O[C@H]2[C@H](OCCOCCOCCOCCOCCOC)CC[C@@]3(O)[C@H]1C5 [PEG5-Nal, α,β-6-CH3—(OCH2CH2)5—O-naloxol]
Result: 16

----------
- assayed-target: hGR (Homo sapiens, UniProt P04150)
- Sequence (P04150 whole entry): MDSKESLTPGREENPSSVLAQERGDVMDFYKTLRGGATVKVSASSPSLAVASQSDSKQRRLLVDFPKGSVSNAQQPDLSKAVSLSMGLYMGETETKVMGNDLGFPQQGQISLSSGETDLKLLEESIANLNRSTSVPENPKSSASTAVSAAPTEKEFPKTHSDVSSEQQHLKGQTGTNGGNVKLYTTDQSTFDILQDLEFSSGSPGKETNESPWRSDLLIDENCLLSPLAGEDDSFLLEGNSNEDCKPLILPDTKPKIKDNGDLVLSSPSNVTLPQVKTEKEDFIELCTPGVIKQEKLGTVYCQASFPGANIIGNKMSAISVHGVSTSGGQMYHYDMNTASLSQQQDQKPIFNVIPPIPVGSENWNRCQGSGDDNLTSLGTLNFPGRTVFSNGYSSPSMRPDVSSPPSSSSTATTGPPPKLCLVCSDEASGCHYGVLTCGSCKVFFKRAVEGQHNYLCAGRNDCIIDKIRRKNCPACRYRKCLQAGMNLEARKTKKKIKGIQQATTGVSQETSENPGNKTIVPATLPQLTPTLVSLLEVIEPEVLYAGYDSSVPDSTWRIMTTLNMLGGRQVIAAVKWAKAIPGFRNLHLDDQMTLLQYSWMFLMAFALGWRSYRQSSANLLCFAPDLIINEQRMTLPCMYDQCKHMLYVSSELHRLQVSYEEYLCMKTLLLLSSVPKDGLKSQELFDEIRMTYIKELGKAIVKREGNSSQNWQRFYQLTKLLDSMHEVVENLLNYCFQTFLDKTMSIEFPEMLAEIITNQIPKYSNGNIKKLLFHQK
- method: Glucocorticoid receptor luciferase reporter assay in COS-7 cells
- measurement-context: ± standard error; 20 hours incubation; TA n = 1
Known pEC50 of a selection of compounds
Quick note: pEC50 values are minus log10 of concentrations in mol/L.

{"compound": "C[C@]12C=CC(=O)C=C1CC[C@H]1[C@@H]3C[C@@H](O)[C@](O)(C(=O)CO)[C@@]3(C)C[C@H](O)[C@@]12F [TA, triamcinolone]", "pEC50": 9.26}

Q: // fetch pEC50 given entry CC1(C)O[C@@H]2C[C@H]3[C@@H]4CCC5=CC(=O)C=C[C@]5(C)[C@@]4(F)[C@@H](O)C[C@]3(C)[C@]2(C(=O)CO)O1 [TAA, triamcinolone acetonide]
Result: 10.21

----------
- method: Cell-based permeability in Calu-3 cells
- Format: in vitro ADME
- measurement-context: human
readout-type: Papp (×10⁻⁶ cm/s)
Quick note: give the figure in ×10⁻⁶ cm/s, leave out the unit.

Q: // fetch Papp given entry O=C1OC2(c3ccc(O)cc3Oc3cc(O)ccc32)c2ccccc21 [Sodium fluorescein, sodium fluorescein]
Result: 0.34

----------
- method: Solubility of tested compounds (Table 1)
readout-type: Solubility (µM)
Quick note: give the figure in µM, leave out the unit.

{"molecule": "COCCOCCOCCOCCOCCOCCOCCNC(=O)\\C=C(C)/C=C/C=C(C)/C=C/C1=C(C)CCCC1(C)C [PEG7-13-cis-RA, CH3—(OCH2CH2)7—NH-13-cis-Retinamide]", "display-unit": "µM", "Solubility": 58.3}

With those in mind, consider the next molecule.
Q: // fetch Solubility given entry CC1=C(/C=C/C(C)=C/C=C/C(C)=C\C(=O)O)C(C)(C)CCC1 [13-cis-Retinoic Acid, 13-cis-retinoic acid, reference compound]
Result: 0.47

The reported numbers originate from patent US20170095565A1.
